Cited source: the supplement of paper PMC11246515

protocol_summary: total protein half-life in vivo (active degradation + dilution); higher = more stable protein
test_parameters: wild type E. coli NCM3722; growth: C-lim chemostat; doubling time 3 h
Binary call on total protein half-life in vivo: Criterion met from 2 h upward, Criterion not met beneath that.

sequence_code: MSETAKKVIVGMSGGVDSSVSAWLLQQQGYQVEGLFMKNWEEDDGEEYCTAAADLADAQAVCDKLGIELHTVNFAAEYWDNVFELFLAEYKAGRTPNPDILCNKEIKFKAFLEFAAEDLGADYIATGHYVRRADVDGKSRLLRGLDSNKDQSYFLYTLSHEQIAQSLFPVGELEKPQVRKIAEDLGLVTAKKKDSTGICFIGERKFREFLGRYLPAQPGKIITVDGDEIGEHQGLMYHTLGQRKGLGIGGTKEGTEEPWYVVDKDVENNILVVAQGHEHPRLMSVGLIAQQLHWVDREPFTGTMRCTVKTRYRQTDIPCTVKALDDDRIEVIFDEPVAAVTPGQSAVFYNGEVCLGGGIIEQRLPLPV
assigned_category: Criterion met
//
sequence_code: MVSSFTSAPRSGFYYFAQGWKLVSQPGIRRFVILPLLVNILLMGGAFWWLFTQLDVWIPTLMSYVPDWLQWLSYLLWPLAVISVLLVFGYFFSTIANWIAAPFNGLLAEQLEARLTGATPPDTGIFGIMKDVPRIMKREWQKFAWYLPRAIVLLILYFIPGIGQTVAPVLWFLFSAWMLAIQYCDYPFDNHKVPFKEMRTALRTRKITNMQFGALTSLFTMIPLLNLFIMPVAVCGATAMWVDCYRDKHAMWR [P0A6J3]
assigned_category: Criterion met
//
sequence_code: MSIEIANIKKSFGRTQVLNDISLDIPSGQMVALLGPSGSGKTTLLRIIAGLEHQTSGHIRFHGTDVSRLHARDRKVGFVFQHYALFRHMTVFDNIAFGLTVLPRRERPNAAAIKAKVTKLLEMVQLAHLADRYPAQLSGGQKQRVALARALAVEPQILLLDEPFGALDAQVRKELRRWLRQLHEELKFTSVFVTHDQEEATEVADRVVVMSQGNIEQADAPDQVWREPATRFVLEFMGEVNRLQGTIRGGQFHVGAHRWPLGYTPAYQGPVDLFLRPWEVDISRRTSLDSPLPVQVLEASPKGHYTQLVVQPLGWYNEPLTVVMHGDDAPQRGERLFVGLQHARLYNGDERIETRDEELALAQSA
assigned_category: Criterion met
//
sequence_code: MDTSLAEEVQQTMATLAPNRFFFMSPYRSFTTSGCFARFDEPAVNGDSPDSPFQQKLAALFADAKAQGIKNPVMVGAIPFDPRQPSSLYIPESWQSFSRQEKQASARRFTRSQSLNVVERQAIPEQTTFEQMVARAAALTATPQVDKVVLSRLIDITTDAAIDSGVLLERLIAQNPVSYNFHVPLADGGVLLGASPELLLRKDGERFSSIPLAGSARRQPDEVLDREAGNRLLASEKDRHEHELVTQAMKEVLRERSSELHVPSSPQLITTPTLWHLATPFEGKANSQENALTLACLLHPTPALSGFPHQAATQVIAELEPFDRELFGGIVGWCDSEGNGEWVVTIRCAKLRENQVRLFAGAGIVPASSPLGEWRETGVKLSTMLNVFGLH [P0AEJ2]
assigned_category: Criterion met
//
sequence_code: MEQRRLASTEWVDIVNEENEVIAQASREQMRAQCLRHRATYIVVHDGMGKILVQRRTETKDFLPGMLDATAGGVVQADEQLLESARREAEEELGIAGVPFAEHGQFYFEDKNCRVWGALFSCVSHGPFALQEDEVSEVCWLTPEEITARCDEFTPDSLKALALWMKRNAKNEAVETETAE
assigned_category: Criterion not met

Form field: total protein half-life in vivo at least 2 h? Entry: MRTTIAVVLGAISLTSAFVFADKPDVARSANDEVSTLFFGHDDRVPVNDTTQSPWDAVGQLETASGNLCTATLIAPNLALTAGHCLLTPPKGKADKAVALRFVSNKGLWRYEIHDIEGRVDPTLGKRLKADGDGWIVPPAAAPWDFGLIVLRNPPSGITPLPLFEGDKAALTAALKAAGRKVTQAGYPEDHLDTLYSHQNCEVTGWAQTSVMSHQCDTLPGDSGSPLMLHTDDGWQLIGVQSSAPAAKDRWRADNRAISVTGFRDKLDQLSQK
Criterion met

Quick one: MMELMVVHPHIFWLSLGGLLLAAEMLGGNGYLLWSGVAAVITGLVVWLVPLGWEWQGVMFAILTLLAAWLWWKWLSRRVREQKHSDSHLNQRGQQLIGRRFVLESPLVNGRGHMRVGDSSWPVSASEDLGAGTHVEVIAIEGITLHIRAVSS [P0AAS3]
Criterion met

Try the sequence MALLEICCYSMECALTAQQNGADRVELCAAPKEGGLTPSLGVLKSVRQRVTIPVHPIIRPRGGDFCYSDGEFAAILEDVRTVRELGFPGLVTGVLDVDGNVDMPRMEKIMAAAGPLAVTFHRAFDMCANPLYTLNNLAELGIARVLTSGQKSDALQGLSKIMELIAHRDAPIIMAGAGVRAENLHHFLDAGVLEVHSSAGAWQASPMRYRNQGLSMSSDEHADEYSRYIVDGAAVAEMKGIIERHQAK
Criterion met

MTGMTNVTKLASEPSGQEFLVFTLGDEEYGIDILKVQEIRGYDQVTRIANTPAFIKGVTNLRGVIVPIVDLRIKFSQVDVDYNDNTVVIVLNLGQRVVGIVVDGVSDVLSLTAEQIRPAPEFAVTLSTEYLTGLGALGDRMLILVNIEKLLNSEEMALLDSAASEVA [P0A964] ?
Criterion not met

Moving on to MSQLTHINAAGEAHMVDVSAKAETVREARAEAFVTMRSETLAMIIDGRHHKGDVFATARIAGIQAAKRTWDLIPLCHPLMLSKVEVNLQAEPEHNRVRIETLCRLTGKTGVEMEALTAASVAALTIYDMCKAVQKDMVIGPVRLLAKSGGKSGDFKVEADD [P0A738]
Criterion met

Same for MVLWQSDLRVSWRAQWLSLLIHGLVAAVILLMPWPLSYTPLWMVLLSLVVFDCVRSQRRINARQGEIRLLMDGRLRWQGQEWSIVKAPWMIKSGMMLRLRSDGGKRQHLWLAADSMDEAEWRDLRRILLQQETQR
Criterion met

====

protocol_summary: total protein half-life in vivo (active degradation + dilution); higher = more stable protein
test_parameters: E. coli NCM3722 delta-clpP delta-lon delta-hslV; growth: N-lim chemostat; doubling time 6 h
measurement_type: total protein half-life in vivo (h)
Give the quantity in h, number only.

sequence_code: MDLRDLKTFLHLAESRHFGRSARAMHVSPSTLSRQIQRLEEDLGQPLFVRDNRTVTLTEAGEELRVFAQQTLLQYQQLRHTIDQQGPSLSGELHIFCSVTAAYSHLPPILDRFRAEHPSVEIKLTTGDAADAMEKVVTGEADLAIAGKPETLPGAVAFSMLENLAVVLIAPALPCPVRNQVSVEKPDWSTVPFIMADQGPVRRRIELWFRRNKISNPMIYATVGGHEAMVSMVALGCGVALLPEVVLENSPEPVRNRVMILERSDEKTPFELGVCAQKKRLHEPLIEAFWKILPNHK
total protein half-life in vivo (h): 6.95

Kindly review the next sequence as well.
Would you mind telling me what total protein half-life in vivo value was observed for MLAKRIIPCLDVRDGQVVKGVQFRNHEIIGDIVPLAKRYAEEGADELVFYDITASSDGRVVDKSWVSRVAEVIDIPFCVAGGIKSLEDAAKILSFGADKISINSPALADPTLITRLADRFGVQCIVVGIDTWYDAETGKYHVNQYTGDESRTRVTQWETLDWVQEVQKRGAGEIVLNMMNQDGVRNGYDLEQLKKVREVCHVPLIASGGAGTMEHFLEAFRDADVDGALAASVFHKQIINIGELKAYLATQGVEIRIC ?
4.98

====

protocol_summary: total protein half-life in vivo (active degradation + dilution); higher = more stable protein
test_parameters: wild type E. coli NCM3722; growth: P-lim chemostat; doubling time 6 h
rule met means recorded total protein half-life in vivo is 5 h or above; rule not met means it is below 5 h.

Identify whether the reported total protein half-life in vivo of the following sequence is 5 h or greater: MIDLRSDTVTRPSRAMLEAMMAAPVGDDVYGDDPTVNALQDYAAELSGKEAAIFLPTGTQANLVALLSHCERGEEYIVGQAAHNYLFEAGGAAVLGSIQPQPIDAAADGTLPLDKVAMKIKPDDIHFARTKLLSLENTHNGKVLPREYLKEAWEFTRERNLALHVDGARIFNAVVAYGCELKEITQYCDSFTICLSKGLGTPVGSLLVGNRDYIKRAIRWRKMTGGGMRQSGILAAAGIYALKNNVARLQEDHDNAAWMAEQLREAGADVMRQDTNMLFVRVGEENAAALGEYMKARNVLINASPIVRLVTHLDVSREQLAEVAAHWRAFLAR
rule met

Let us now turn to MLINIGRLLMLCVWGFLILNLVHPFPRPLNIFVNVALIFTVLMHGMQLALLKSTLPKDGPQMTTAEKVRIFLFGVFELLAWQKKFKVKK
rule met

One more sequence: MEFAFYICGLIAILATLRVITHTNPVHALLYLIISLLAISGVFFSLGAYFAGALEIIVYAGAIMVLFVFVVMMLNLGGSEIEQERQWLKPQVWIGPAILSAIMLVVIVYAILGVNDQGIDGTPISAKAVGITLFGPYVLAVELASMLLLAGLVVAFHVGREERAGEVLSNRKDDSAKRKTEEHA [P0AFE0]
rule met
